# Subject of test: Sodium-dependent noradrenaline transporter (Homo sapiens, UniProt P23975)
# Sequence (P23975 whole entry): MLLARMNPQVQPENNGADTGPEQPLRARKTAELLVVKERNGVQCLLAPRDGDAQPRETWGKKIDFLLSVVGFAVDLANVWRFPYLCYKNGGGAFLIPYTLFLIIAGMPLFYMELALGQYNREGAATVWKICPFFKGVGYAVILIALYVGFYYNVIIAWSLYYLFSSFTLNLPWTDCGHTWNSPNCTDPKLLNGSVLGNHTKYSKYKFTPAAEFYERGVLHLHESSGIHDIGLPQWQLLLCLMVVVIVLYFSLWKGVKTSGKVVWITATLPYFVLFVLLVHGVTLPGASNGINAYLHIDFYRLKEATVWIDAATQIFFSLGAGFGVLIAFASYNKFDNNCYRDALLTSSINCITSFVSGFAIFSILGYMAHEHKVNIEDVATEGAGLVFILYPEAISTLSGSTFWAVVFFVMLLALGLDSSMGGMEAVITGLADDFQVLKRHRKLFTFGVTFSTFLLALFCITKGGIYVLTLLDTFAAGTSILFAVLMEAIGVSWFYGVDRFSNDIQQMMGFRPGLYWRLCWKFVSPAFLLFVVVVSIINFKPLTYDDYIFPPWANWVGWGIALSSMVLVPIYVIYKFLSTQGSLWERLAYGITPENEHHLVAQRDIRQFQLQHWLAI
Property: AC50

INSERT INTO assay_data (compound, subject_of_test, property, value) VALUES
  ('CCCCCCOc1ccccc1C(N)=O [EXALAMIDE]', 'Sodium-dependent noradrenaline transporter (Homo sapiens, UniProt P23975)', 'AC50', '> 30 µM'),
  ('C#C[C@]1(O)CC[C@H]2[C@@H]3CCc4cc(OC5CCCC5)ccc4[C@H]3CC[C@@]21C', 'Sodium-dependent noradrenaline transporter (Homo sapiens, UniProt P23975)', 'AC50', '> 10 µM'),
  ('CC(C[N+](C)(C)C)OC(N)=O (stereo not given)', 'Sodium-dependent noradrenaline transporter (Homo sapiens, UniProt P23975)', 'AC50', '> 10 µM'),
  ('COc1cc2nc(N(C)CCCNC(=O)C3CCCO3)nc(N)c2cc1OC (stereo not given)', 'Sodium-dependent noradrenaline transporter (Homo sapiens, UniProt P23975)', 'AC50', '13 µM'),
  ('CCCC1O[C@@H]2C[C@H]3[C@@H]4CCC5=CC(=O)C=C[C@]5(C)[C@H]4[C@@H](O)C[C@]3(C)[C@]2(C(=O)CO)O1 (stereo not given in full) [BUDESONIDE]', 'Sodium-dependent noradrenaline transporter (Homo sapiens, UniProt P23975)', 'AC50', '> 10 µM'),
  ('O=C1C(O)=C([C@H]2CC[C@H](c3ccc(Cl)cc3)CC2)C(=O)c2ccccc21', 'Sodium-dependent noradrenaline transporter (Homo sapiens, UniProt P23975)', 'AC50', '> 30 µM'),
  ('COc1ccccc1N1CCN(CCCNc2cc(=O)n(C)c(=O)n2C)CC1', 'Sodium-dependent noradrenaline transporter (Homo sapiens, UniProt P23975)', 'AC50', '> 30 µM'),
  ('CC(C)(C)C(=O)Oc1ccc(S(=O)(=O)Nc2ccccc2C(=O)NCC(=O)O)cc1', 'Sodium-dependent noradrenaline transporter (Homo sapiens, UniProt P23975)', 'AC50', '> 30 µM'),
  ('CCC(C(=O)O)c1ccc(N2Cc3ccccc3C2=O)cc1 (stereo not given)', 'Sodium-dependent noradrenaline transporter (Homo sapiens, UniProt P23975)', 'AC50', '> 30 µM'),
  ('CNC1Cc2ccccc2N(C)c2ccccc21 (stereo not given)', 'Sodium-dependent noradrenaline transporter (Homo sapiens, UniProt P23975)', 'AC50', '16 µM'),
  ('O=[N+]([O-])c1cn2c(n1)OC[C@@H](OCc1ccc(OC(F)(F)F)cc1)C2', 'Sodium-dependent noradrenaline transporter (Homo sapiens, UniProt P23975)', 'AC50', '> 10 µM'),
  ('COc1ccc(-c2ccc3cc(C(=O)O)ccc3c2)cc1C12CC3CC(CC(C3)C1)C2', 'Sodium-dependent noradrenaline transporter (Homo sapiens, UniProt P23975)', 'AC50', '> 30 µM'),
  ('CS(=O)(=O)c1ccc(C2=C(c3ccccc3)C(=O)OC2)cc1', 'Sodium-dependent noradrenaline transporter (Homo sapiens, UniProt P23975)', 'AC50', '> 10 µM'),
  ('C[C@@H]1O[C@@H](O[C@@H]2C=C3CC[C@@H]4[C@H](CC[C@]5(C)[C@@H](c6ccc(=O)oc6)CC[C@]45O)[C@@]3(C)CC2)[C@H](O)[C@H](O)[C@H]1O', 'Sodium-dependent noradrenaline transporter (Homo sapiens, UniProt P23975)', 'AC50', '> 30 µM'),
  ('C[C@](N)(Cc1ccc(O)c(O)c1)C(=O)O', 'Sodium-dependent noradrenaline transporter (Homo sapiens, UniProt P23975)', 'AC50', '> 10 µM'),
  ('CCN(CC)C(=O)N[C@H]1C[C@@H]2c3cccc4[nH]cc(c34)C[C@H]2N(C)C1 [TERGURIDE]', 'Sodium-dependent noradrenaline transporter (Homo sapiens, UniProt P23975)', 'AC50', '> 30 µM'),
  ('CN1C(=O)C(O)N=C(c2ccccc2Cl)c2cc(Cl)ccc21 (stereo not given)', 'Sodium-dependent noradrenaline transporter (Homo sapiens, UniProt P23975)', 'AC50', '> 30 µM'),
  ('CCOC(=O)[C@H](CCc1ccccc1)N[C@@H](C)C(=O)N1C(=O)N(C)C[C@H]1C(=O)O', 'Sodium-dependent noradrenaline transporter (Homo sapiens, UniProt P23975)', 'AC50', '> 30 µM'),
  ('Nc1nc(/C(=C/CC(=O)O)C(=O)N[C@@H]2C(=O)N3C(C(=O)O)=CCS[C@H]23)cs1', 'Sodium-dependent noradrenaline transporter (Homo sapiens, UniProt P23975)', 'AC50', '> 30 µM'),
  ('COCCCN1CCC(NC(=O)c2cc(Cl)c(N)c3c2OCC3)CC1 [PRUCALOPRIDE]', 'Sodium-dependent noradrenaline transporter (Homo sapiens, UniProt P23975)', 'AC50', '> 30 µM');
